Test system: M. tuberculosis H37Rv
Assay: MIC by microplate alamar blue assay
Assay type: cell-based
Conditions: Mycobacterium tuberculosis, NA = no activity, read-out: MIC against M. tuberculosis H37Rv
attribute measured: MIC

| compound | attribute measured | reading |
| --- | --- | --- |
| O=C(CSc1nc2ccccc2n1C(=O)c1ccccc1)Nc1ccc(F)cc1 | MIC | 12.5 µg/mL |
| O=C(CSc1nc2ccccc2n1C(=O)c1ccccc1)Nc1cccc(Cl)c1 | MIC | 17.8 µg/mL |
| [H]/N=C(/N)N[C@H]1[C@H](O)[C@@H](O)[C@H](O[C@@H]2O[C@@H](C)[C@](O)(C=O)[C@H]2O[C@@H]2O[C@@H](CO)[C@H](O)[C@@H](O)[C@@H]2NC)[C@@H](N/C(N)=N\[H])[C@@H]1O [Streptomycin, reference compound] | MIC | 12.5 µg/mL |
| COc1ccccc1NC(=O)CSc1nc2ccccc2n1C(=O)c1ccccc1 | MIC | 12.5 µg/mL |

* * *

This section lists MIC readings for M. tuberculosis H37Rv.
attribute measured: MIC (µg/mL)

| smiles data | assay system | value units | reading |
| --- | --- | --- | --- |
| O=C(CSc1nc2ccccc2n1C(=O)c1ccccc1)Nc1ccc(Cl)cc1 | M. tuberculosis H37Rv | µg/mL | 12.5 |
| O=C(CSc1nc2ccccc2n1C(=O)c1ccccc1)Nc1ccccc1 | M. tuberculosis H37Rv | µg/mL | 12.5 |
| O=C(CSc1nc2ccccc2n1C(=O)c1ccccc1)Nc1ccc(Cl)cc1[N+](=O)[O-] | M. tuberculosis H37Rv | µg/mL | 15 |
| Cc1ccc(NC(=O)CSc2nc3ccccc3n2C(=O)c2ccccc2)cc1 | M. tuberculosis H37Rv | µg/mL | 12.5 |
| Cc1cccc(C)c1NC(=O)CSc1nc2ccccc2n1C(=O)c1ccccc1 | M. tuberculosis H37Rv | µg/mL | 12.5 |
| O=C(CSc1nc2ccccc2n1C(=O)c1ccccc1)Nc1cccc([N+](=O)[O-])c1 | M. tuberculosis H37Rv | µg/mL | 12.5 |
| O=C(CSc1nc2ccccc2n1C(=O)c1ccccc1)Nc1ccccc1F | M. tuberculosis H37Rv | µg/mL | 12.5 |
| Cc1ccccc1NC(=O)CSc1nc2ccccc2n1C(=O)c1ccccc1 | M. tuberculosis H37Rv | µg/mL | 15 |
| COc1ccc(NC(=O)CSc2nc3ccccc3n2C(=O)c2ccccc2)cc1 | M. tuberculosis H37Rv | µg/mL | 12.5 |
| Cc1ccc(NC(=O)CSc2nc3ccccc3n2C(=O)c2ccccc2)c(C)c1 | M. tuberculosis H37Rv | µg/mL | 15 |
| O=C(CSc1nc2ccccc2n1C(=O)c1ccccc1)Nc1ccc(Br)cc1 | M. tuberculosis H37Rv | µg/mL | 17.8 |
| O=C(CSc1nc2ccccc2n1C(=O)c1ccccc1)Nc1cc(Cl)ccc1Cl | M. tuberculosis H37Rv | µg/mL | 12.5 |
| O=C(CSc1nc2ccccc2n1C(=O)c1ccccc1)Nc1ccccc1Br | M. tuberculosis H37Rv | µg/mL | 15 |
| O=C(CSc1nc2ccccc2n1C(=O)c1ccccc1)Nc1cccc(Br)c1 | M. tuberculosis H37Rv | µg/mL | 12.5 |
| O=C(CSc1nc2ccccc2n1C(=O)c1ccccc1)Nc1ccccc1Cl | M. tuberculosis H37Rv | µg/mL | 12.5 |
